Hello, the source for this data is paper PMC6896334, in case you need it.

test: Pharmacokinetics in serum after i.p. injection
Type: in vivo, mouse
condition-details: male, BALB/c, mouse, serum, ip

molecule: CCC(=O)N(CCC(c1ccc2c(c1)OCO2)c1ccccc1OC)Cc1ccccc1 (stereo not shown)
half-life: ~180 min
